# credit: patent US20240368163A1

# Tested on: Target C
# procedure-details: Splicing RT-qPCR panel, Target C canonical junction (CJ) mRNA
# Format: cell-based, human
# assay-context: Homo sapiens, RT-qPCR panel, canonical junction mRNA; compound concentration having 50% response in CJ decrease; read-out: Target C IC50 (decrease in CJ mRNA levels)
value-kind: IC50

# compound, observed
measured = [
    ("c1cnn(-c2ccc(-c3cnc(N[C@@H]4C[C@H]5CC[C@@H](C4)N5)nn3)c3cn[nH]c23)c1", "100 to 1000 nM"),
]

Return value of IC50 for input c1cnn(-c2ccc(-c3ccc(N4CCC(NC5CC5)C4)nn3)c3[nH]ncc23)c1 (stereo not drawn) , no commentary.
> 10000 nM

Respond only with IC50 recorded for "CN(c1cnc(-c2cc(F)c(-c3cnn(C)c3)c3cn[nH]c23)nn1)[C@@H]1C[C@H]2CC[C@@H](C1)N2"
100 to 1000 nM

Give the reported IC50 for this compound. "[2H]C([2H])([2H])N(c1ccc(-c2ccc(-c3cn[nH]c3)c3ncsc23)nn1)[C@@H]1C[C@H]2CCC[C@@H](C1)N2"
< 100 nM

Check the records and state IC50 for CNC1CCN(c2ncc(-c3ccc(-n4cccn4)c4[nH]ncc34)nn2)C1 (stereo not drawn)
> 10000 nM

----------
# reported IC50; entries follow
# System: Target C
# procedure-details: Splicing RT-qPCR panel, Target C canonical junction (CJ) mRNA
# Type: cell-based, human
# assay-context: Homo sapiens, RT-qPCR panel, canonical junction mRNA; compound concentration having 50% response in CJ decrease; read-out: Target C IC50 (decrease in CJ mRNA levels)

# compound, value-kind, observed
measured = [
    ("CN(c1ncc(-c2ccc(-c3cn[nH]c3)c3ncsc23)nn1)C1CC(C)(C)NC(C)(C)C1", "IC50", "0.1 to 1 µM"),
    ("CCN(c1ccc(-c2ccc(-c3cn[nH]c3)c3ncsc23)nn1)[C@@H]1C[C@H]2CCC[C@@H](C1)N2", "IC50", "< 0.1 µM"),
    ("c1nc2c(-c3cn[nH]c3)ccc(-c3ccc(N4CCC45CCCNC5)nn3)c2s1 (stereo not shown)", "IC50", "1 to 10 µM"),
    ("CN(c1ncc(-c2ccc(-c3cn[nH]c3)c3ncsc23)nn1)[C@@H]1C[C@]2(C)CC[C@](C)(C1)N2", "IC50", "0.1 to 1 µM"),
    ("c1nc2c(-c3cn[nH]c3)ccc(-c3ccc(N4CCC45CCNCC5)nn3)c2s1", "IC50", "> 10 µM"),
    ("Cl.Fc1cc(-c2ccc(NC3CCNCC3)nn2)c2[nH]ncc2c1-c1cn[nH]c1 [Compound 350, hydrochloride]", "IC50", "> 10 µM"),
]

Proceed to the following item.
Provide one value: measured IC50 of "CN1C[C@@H]2CN(c3ccc(-c4ccc(-c5cn[nH]c5)c5ncsc45)nn3)C[C@@H]2C1"
> 10 µM

----------
# Tested on: Target C
# procedure-details: Splicing RT-qPCR panel, Target C canonical junction (CJ) mRNA
# Format: cell-based, human
# assay-context: Homo sapiens, RT-qPCR panel, canonical junction mRNA; compound concentration having 50% response in CJ decrease; read-out: Target C IC50 (decrease in CJ mRNA levels)
pIC50: −log10 of the molar value.
value-kind: pIC50

# compound, pIC50
data = [
    ("CN(c1ccc(-c2ccc(-n3cccn3)c3[nH]ncc23)nn1)[C@@H]1C[C@H]2CC[C@@H](C1)N2 [Compound 409]", "> 7.00"),
]

Continue with the next compound.
Identify measured pIC50 corresponding to c1nc2c(-c3cn[nH]c3)ccc(-c3cnc(N4CCN[C@H](C5CC5)C4)nn3)c2s1 [Compound 451]
5.00 to 6.00

----------
# Test system: HTT
# procedure-details: Splicing RT-qPCR assay, HTT mRNA canonical junction (CJ) and alternative junction (AJ)
# Assay type: cell-based, human
# assay-context: Homo sapiens, RT-qPCR panel, canonical junction mRNA; compound concentration having 50% response in CJ decrease; read-out: HTT IC50 (decrease in CJ mRNA levels)
# Description: Compounds described herein were used to modulate RNA transcript abundance in cells. The expression of a target mRNA was measured by detecting the formation of an exon-exon junction in the canonical transcript (CJ). A compound mediated exon-inclusion event was detected by observing an increase in formation of a new junction with an alternative exon (AJ). Real-time qPCR assays were used to detect these splicing switches and interrogate the potency of various compounds towards different target genes. […]
Recorded IC50 for the following molecules

Worked cases, IC50 given:
# molecule, observed
records = [
    ("CC1(C)CC(Oc2ccc(-c3ccc(-n4cccn4)c4ncsc34)nn2)CC(C)(C)N1", "1000 to 10000 nM"),
    ("c1nc2c(-c3cn[nH]c3)ccc(-c3cnc(N4CCN[C@H](C5CC5)C4)nn3)c2s1", "1000 to 10000 nM"),
    ("Cn1ncc(-c2ccc(-c3ccc(O[C@@H]4C[C@H]5CC[C@@H](C4)N5)nn3)c3[nH]ncc23)n1", "100 to 1000 nM"),
    ("c1cnn(-c2ccc(-c3ccc(N4CCC(NC5CC5)C4)nn3)c3scnc23)c1 (stereo not drawn)", "> 10000 nM"),
]

Given CN(c1ncc(-c2ccc(-c3cn[nH]c3)c3ncsc23)nn1)C1CC2CCC(C1)N2 (stereo not drawn) , respond with its IC50.
< 100 nM

Input "CN(c1ccc(-c2ccc(-c3cn[nH]c3)c3ncsc23)nn1)[C@H]1C[C@H]2COC[C@@H](C1)N2" , output reported IC50.
1000 to 10000 nM

----------
# Test system: MYB
# procedure-details: Splicing RT-qPCR assay, MYB mRNA canonical junction (CJ) and alternative junction (AJ)
# Format: cell-based, human
# assay-context: Homo sapiens, 24 h, decrease in CJ mRNA; A673 or K562 cells, 24 hours treatment, RT-qPCR; read-out: MYB CJ IC50
Listed here are molecules together with their documented IC50.

Look over these answered cases.
# record-smiles, assayed-system, IC50
rows = [
    ("CN(C)[C@H]1[C@@H]2CN(c3ccc(-c4ccc(-c5cn[nH]c5)c5cn[nH]c45)nn3)C[C@@H]21", "MYB", "> 10000 nM"),
    ("c1n[nH]cc1-c1ccc(-c2ccc(N3CC4(CCNCC4)C3)nn2)c2[nH]ncc12", "MYB", "1000 to 10000 nM"),
    ("CCN(c1ccc(-c2ccc(-c3cn[nH]c3)c3cn[nH]c23)nn1)[C@@H]1C[C@H]2CCC[C@@H](C1)N2", "MYB", "100 to 1000 nM"),
]

With those in mind, consider the next molecule.
Look up and report measured IC50 (MYB) for the following molecule: "Cc1ncc(-c2ccc(-c3ccc(N(C)C4CC(C)(C)NC(C)(C)C4)nc3)c3ncsc23)o1"
1000 to 10000 nM

----------
# Test system: Target C
# procedure-details: Splicing RT-qPCR panel, Target C canonical junction (CJ) mRNA
# Assay type: cell-based, human
# assay-context: Homo sapiens, gene panel, CJ qPCR, protocol of Example 142; read-out: Target C IC50 (decrease in CJ mRNA levels)
# Protocol: Compounds described herein were used to modulate RNA transcript abundance in cells. The expression of a target mRNA was measured by detecting the formation of an exon-exon junction in the canonical transcript (CJ). A compound mediated exon-inclusion event was detected by observing an increase in formation of a new junction with an alternative exon (AJ). Real-time qPCR assays were used to detect these splicing switches and interrogate the potency of various compounds towards different target genes. […]
pIC50: −log10 of the molar value.
value-kind: pIC50

The cases that follow already have their pIC50 on record.
# compound, value-kind, observed
records = [
    ("COc1nc(-c2ccc(OC3CC4CC(F)(F)C(C3)N4)nn2)cc(F)c1-c1cn[nH]c1 (stereo not shown)", "pIC50", "< 5.00"),
    ("COc1nc(-c2ccc(OC3CC(C)(C)NC(C)(C)C3)nn2)ccc1-c1cn(C)nn1", "pIC50", "< 5.00"),
    ("COc1nc(-c2ccc(OC3CC(C)(C)NC(C)(C)C3)nn2)ccc1-n1cccn1", "pIC50", "< 5.00"),
    ("CNc1nc(-c2ccc(N(C)[C@@H]3C[C@H]4CC[C@@H](C3)N4)nn2)ccc1-c1cn[nH]c1", "pIC50", "6.00 to 7.00"),
    ("COc1nc(-c2ccc(N(C)C3CC(C)(C)NC(C)(C)C3)nc2)ccc1-c1cnn(C)n1", "pIC50", "5.00 to 6.00"),
    ("COc1nc(-c2ccc(N(C)C3CC(C)(C)NC(C)(C)C3)nn2)ccc1-c1cnn(C)n1", "pIC50", "5.00 to 6.00"),
]

// next item, pIC50 requested
Look up and report measured pIC50 for this entry: "COc1cc(-c2ccc(-c3ccc(N(C)[C@@H]4C[C@H]5CC[C@@H](C4)N5)nn3)nc2OC)cnn1"
6.00 to 7.00
